experimental.system: T1, cynomolgus monkey B7-H4 (recombinant, BLI) (cynomolgus monkey, UniProt Q7Z7D3 25-259 (human entry))
T1 construct: also called Cynomolgus B7-H4
T1 sequence: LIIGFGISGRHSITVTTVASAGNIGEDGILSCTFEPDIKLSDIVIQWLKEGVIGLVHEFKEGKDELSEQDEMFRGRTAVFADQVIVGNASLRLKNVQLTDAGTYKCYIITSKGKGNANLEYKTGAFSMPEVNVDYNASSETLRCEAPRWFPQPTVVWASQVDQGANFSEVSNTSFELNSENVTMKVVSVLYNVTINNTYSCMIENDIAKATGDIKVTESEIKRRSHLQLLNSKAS
test.method.notes: BLI, antigen on Protein A tips;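 also: Anti-B7-H4 antibodies assessed for affinity toward the B7-H4 extracellular domain using biolayer interferometry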
Please use class 1 whenever koff is not below 0.02 s⁻¹, and class 0 whenever it is.

>>> class_label("B7-H4 antibody 20506 (antibody, V domains shown, human IgG1/kappa) VH: QLQLQESGPGLVKPSETLSLTCTASGGSISHGGYYWSWIRQHPGKGLEWIGNIYYSGSTYYNPSLKSRVTMSVDTSKNQFSLKLSSVTAADTAVYYCARESSTISADFDLWGRGTLVTVSS VL: DIQMTQSPSSVSASVGDRVTITCRASQGISRWLAWYQQKPGKAPKLLIYAASSLQSGVPSRFSGSGSGTDFTLTISSLQPEDFATYYCQQAHTFPYTFGGGTKVEIKR")
"class 0"
>>> class_label("B7-H4 antibody 15461 (antibody, human IgG1, kappa, V domains shown, human IgG1/kappa) VH: QLQLQESGPGLVKPSETLSLTCTVSGGSISSSSYYWGWIRQPPGKGLEWIGNIYYSGSTYYNPSLKSRVTISVDTSKNQFSLKLSSVTAADTAVYYCAREGSYPNWFDPWGQGTLVTVSS VL: EIVMTQSPATLSVSPGERATLSCRASQSVSSNLAWYQQKPGQAPRLLIYGASTRATGIPARFSGSGSGTEFTLTISSLQSEDFAVYYCQQYHSFPFTFGGGTKVEIKR")
"class 1"

Exam item: decide whether the reported koff for B7-H4 antibody 20496 (antibody, human IgG1, kappa, V domains shown, human IgG1/kappa) VH: QLQLQESGPGLVKPSETLSLTCTVSGGSISSSVYYWSWIRQPPGKGLEWIGSILVSGSTYYNPSLKSRVTISVDTSKNQFSLKLSSVTAADTAVYYCARAVSFLDVWGQGTMVIVSS VL: DIQMTQSPSSLSASVGDRVTITCRASQSISSYLNWYQQKPGKAPKLLIYGASSLQSGVPSRFSGSGSGTDFTLTISSLQPEDFATYYCQQSYDPPWTFGGGTKVEIKR is at least 0.02 s⁻¹.
class 0

Exam item: decide whether the reported koff for B7-H4 antibody 15495 (antibody, human IgG1, kappa, V domains shown, human IgG1/kappa) VH: QVQLVQSGAEVKKPGSSVKVSCKASGGTFSSYAISWVRQAPGQGLEWMGGIIPIFGTASYAQKFQGRVTITADESTSTAYMELSSLRSEDTAVYYCARQQYDGRRYFGLWGRGTLVTVSS VL: EIVMTQSPATLSVSPGERATLSCRASQSVSSNLAWYQQKPGQAPRLLIYSASTRATGIPARFSGSGSGTEFTLTISSLQSEDFAVYYCQQVNVWPPTFGGGTKVEIKR is at least 0.02 s⁻¹.
class 0

Exam item: decide whether the reported koff for B7-H4 antibody 15465 (antibody, human IgG1, kappa, V domains shown, human IgG1/kappa) VH: QVQLQESGPGLVKPSQTLSLTCTVSGGSISSGGYYWSWIRQHPGKGLEWIGNIYYSGSTYYNPSLKSRVTISVDTSKNQFSLKLSSVTAADTAVYYCARESSTISADFDLWGRGTLVTVSS VL: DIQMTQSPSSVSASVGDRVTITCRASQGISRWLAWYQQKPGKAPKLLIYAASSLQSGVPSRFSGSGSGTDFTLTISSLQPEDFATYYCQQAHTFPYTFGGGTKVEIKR is at least 0.02 s⁻¹.
class 1
